assay-info: Study of Chromogenic Substrate Properties: absorbance maxima, shift, extinction coefficient (Table D)
Format: physicochemical
measurement-context: chromogen; colour in words where no value
# reported λ max Chromogen; entries follow
No unit in the answer, only the number.

Some solved entries appear below for comparison.
CC[n+]1c(C=Cc2ccc(O[C@@H]3O[C@H](CO)[C@H](O)[C@H](O)[C@H]3O)cc2)sc2ccccc21.[Cl-]; 492
C[n+]1c(/C=C/c2ccc(O[C@@H]3O[C@H](CO)[C@H](O)[C@H](O)[C@H]3O)c3ccccc23)sc2ccc3ccccc3c21; 610

Consider the additional compound presented here.
q: Please give measured λ max Chromogen of the following entry: CC[n+]1c(C=Cc2ccc(O[C@@H]3O[C@H](CO)[C@H](O)[C@H](O)[C@H]3O)c3ccccc23)ccc2ccccc21
a: 606

---

# reported λ max Chromogen; entries follow
assay-info: Study of Chromogenic Substrate Properties: absorbance maxima, shift, extinction coefficient (Table D)
Assay type: physicochemical
measurement-context: chromogen; colour in words where no value
No unit in the answer, only the number.

CC[N+]1=C(C=Cc2ccc(O[C@@H]3O[C@H](CO)[C@H](O)[C@H](O)[C@H]3O)c3ccccc23)C(C)(C)c2ccccc21; 580
CC[N+]1=C(C=Cc2ccc3cc(O[C@@H]4O[C@H](CO)[C@H](O)[C@H](O)[C@H]4O)ccc3c2)C(C)(C)c2ccccc21; 530

Consider the additional compound presented here.
q: Please give measured λ max Chromogen of the following entry: CC[n+]1c(C=Cc2ccc(O[C@@H]3O[C@H](CO)[C@H](O)[C@H](O)[C@H]3O)c3ccccc23)sc2cc(OC)ccc21
a: 598

---

# reported λ max Chromogen; entries follow
assay-info: Study of Chromogenic Substrate Properties: absorbance maxima, shift, extinction coefficient (Table D)
Format: physicochemical
measurement-context: chromogen; colour in words where no value
No unit in the answer, only the number.

Cc1ccc2oc(C=Cc3ccc(O[C@@H]4O[C@H](CO)[C@H](O)[C@H](O)[C@H]4O)c4ccccc34)[n+](CCC(=O)O)c2c1; 550

Consider the additional compound presented here.
q: Please give measured λ max Chromogen of the following entry: CC[N+]1=C(C=Cc2ccc(O[C@@H]3O[C@H](CO)[C@H](O)[C@H](O)[C@H]3O)cc2)C(C)(C)c2ccccc21
a: 522

---

System: β-galactosidase
assay-info: Study of Chromogenic Substrate Properties: enzyme turnover, Km and Kcat (Table D)
Assay type: biochemical
# reported Km; entries follow
Write the number in µM without appending the unit.

Some solved entries appear below for comparison.
CC[N+]1=C(C=Cc2ccc(O[C@@H]3O[C@H](CO)[C@H](O)[C@H](O)[C@H]3O)c3ccccc23)C(C)(C)c2ccccc21 [Compound 17]; 90
CC[n+]1c(C=Cc2ccc(O[C@@H]3O[C@H](CO)[C@H](O)[C@H](O)[C@H]3O)c3ccccc23)sc2cc(OC)ccc21 [Compound 21]; 430

Consider the additional compound presented here.
q: Please give measured Km of the following entry: CC[n+]1c(C=Cc2ccc(O[C@@H]3O[C@H](CO)[C@H](O)[C@H](O)[C@H]3O)cc2)sc2ccccc21.[Cl-] [Compound 19]
a: 17

---

assay-info: Study of Chromogenic Substrate Properties: absorbance maxima, shift, extinction coefficient (Table D)
Assay type: physicochemical
measurement-context: substrate; colour in words where no value
# reported λ max Substrate; entries follow
No unit in the answer, only the number.

Some solved entries appear below for comparison.
CC[N+]1=C(C=Cc2ccc3cc(O[C@@H]4O[C@H](CO)[C@H](O)[C@H](O)[C@H]4O)ccc3c2)C(C)(C)c2ccccc21 [Compound 18]; 430
CC[n+]1c(C=Cc2ccc(O[C@@H]3O[C@H](CO)[C@H](O)[C@H](O)[C@H]3O)c3ccccc23)ccc2ccccc21 [Compound 26]; 434
CC[N+]1=C(C=Cc2ccc(O[C@@H]3O[C@H](CO)[C@H](O)[C@H](O)[C@H]3O)c3ccccc23)C(C)(C)c2ccccc21 [Compound 17]; 456

q: Please give measured λ max Substrate of the following entry: Cc1ccc2oc(C=Cc3ccc(O[C@@H]4O[C@H](CO)[C@H](O)[C@H](O)[C@H]4O)c4ccccc34)[n+](CCC(=O)O)c2c1 [Compound 25]
a: 420

q: Please give measured λ max Substrate of the following entry: CC[n+]1c(C=Cc2ccc(O[C@@H]3O[C@H](CO)[C@H](O)[C@H](O)[C@H]3O)cc2)sc2ccccc21.[Cl-] [Compound 19]
a: 393

---

Tested on: β-galactosidase
assay-info: Study of Chromogenic Substrate Properties: enzyme turnover, Km and Kcat (Table D)
Type: biochemical
metric-name: Km (µM)
Write the number in µM without appending the unit.

Cc1ccc2oc(C=Cc3ccc(O[C@@H]4O[C@H](CO)[C@H](O)[C@H](O)[C@H]4O)c4ccccc34)[n+](CCC(=O)O)c2c1 [Compound 25]; 80
CC[N+]1=C(C=Cc2ccc3cc(O[C@@H]4O[C@H](CO)[C@H](O)[C@H](O)[C@H]4O)ccc3c2)C(C)(C)c2ccccc21 [Compound 18]; 80

Consider the additional compound presented here.
q: Answer briefly: Km recorded on β-galactosidase for CC[N+]1=C(C=Cc2ccc(O[C@@H]3O[C@H](CO)[C@H](O)[C@H](O)[C@H]3O)cc2)C(C)(C)c2ccccc21 [Compound 16]
a: 18

---

assay-info: Study of Chromogenic Substrate Properties: absorbance maxima, shift, extinction coefficient (Table D)
Format: physicochemical
measurement-context: shift from substrate to chromogen
metric-name: λ max Shift
No unit in the answer, only the number.

C[n+]1c(/C=C/c2ccc(O[C@@H]3O[C@H](CO)[C@H](O)[C@H](O)[C@H]3O)c3ccccc23)sc2ccc3ccccc3c21 [Compound 22]; 140
CC[N+]1=C(C=Cc2ccc3cc(O[C@@H]4O[C@H](CO)[C@H](O)[C@H](O)[C@H]4O)ccc3c2)C(C)(C)c2ccccc21 [Compound 18]; 100
CC[n+]1c(C=Cc2ccc(O[C@@H]3O[C@H](CO)[C@H](O)[C@H](O)[C@H]3O)c3ccccc23)sc2cc(OC)ccc21 [Compound 21]; 176

q: Please give measured λ max Shift of the following entry: CC[N+]1=C(C=Cc2ccc(O[C@@H]3O[C@H](CO)[C@H](O)[C@H](O)[C@H]3O)c3ccccc23)C(C)(C)c2ccccc21 [Compound 17]
a: 124

q: Please give measured λ max Shift of the following entry: CC[n+]1c(C=Cc2ccc(O[C@@H]3O[C@H](CO)[C@H](O)[C@H](O)[C@H]3O)cc2)sc2ccccc21.[Cl-] [Compound 19]
a: 99

q: Please give measured λ max Shift of the following entry: Cc1ccc2oc(C=Cc3ccc(O[C@@H]4O[C@H](CO)[C@H](O)[C@H](O)[C@H]4O)c4ccccc34)[n+](CCC(=O)O)c2c1 [Compound 25]
a: 130

q: Please give measured λ max Shift of the following entry: CC[n+]1c(C=Cc2ccc(O[C@@H]3O[C@H](CO)[C@H](O)[C@H](O)[C@H]3O)c3ccccc23)ccc2ccccc21 [Compound 26]
a: 172

q: Please give measured λ max Shift of the following entry: CC[N+]1=C(C=Cc2ccc(O[C@@H]3O[C@H](CO)[C@H](O)[C@H](O)[C@H]3O)cc2)C(C)(C)c2ccccc21 [Compound 16]
a: 116

---

# reported ε × 10^3 Chromogen; entries follow
assay-info: Study of Chromogenic Substrate Properties: absorbance maxima, shift, extinction coefficient (Table D)
Type: physicochemical
measurement-context: chromogen; values are ε × 10^3
No unit in the answer, only the number.

CC[n+]1c(C=Cc2ccc(O[C@@H]3O[C@H](CO)[C@H](O)[C@H](O)[C@H]3O)c3ccccc23)ccc2ccccc21; 70.2
CC[n+]1c(C=Cc2ccc(O[C@@H]3O[C@H](CO)[C@H](O)[C@H](O)[C@H]3O)c3ccccc23)sc2cc(OC)ccc21; 80.1
Cc1ccc2oc(C=Cc3ccc(O[C@@H]4O[C@H](CO)[C@H](O)[C@H](O)[C@H]4O)c4ccccc34)[n+](CCC(=O)O)c2c1; 50.1
CC[N+]1=C(C=Cc2ccc(O[C@@H]3O[C@H](CO)[C@H](O)[C@H](O)[C@H]3O)cc2)C(C)(C)c2ccccc21; 45.0
CC[N+]1=C(C=Cc2ccc(O[C@@H]3O[C@H](CO)[C@H](O)[C@H](O)[C@H]3O)c3ccccc23)C(C)(C)c2ccccc21; 82.0

q: Please give measured ε × 10^3 Chromogen of the following entry: CC[n+]1c(C=Cc2ccc(O[C@@H]3O[C@H](CO)[C@H](O)[C@H](O)[C@H]3O)cc2)sc2ccccc21.[Cl-]
a: 43.0

---

Tested on: β-galactosidase
assay-info: Study of Chromogenic Substrate Properties: enzyme turnover, Km and Kcat (Table D)
Type: biochemical
metric-name: Kcat

q: Please give measured Kcat of the following entry: CC[N+]1=C(C=Cc2ccc(O[C@@H]3O[C@H](CO)[C@H](O)[C@H](O)[C@H]3O)c3ccccc23)C(C)(C)c2ccccc21
a: 7.8 × 10^3 mole/min per mole active site
